FYI, the data here is from patent US20260209215A1.

TARGET_ENTITY: P2X4 receptor (Homo sapiens, UniProt Q99571)
Sequence (Q99571 1-388): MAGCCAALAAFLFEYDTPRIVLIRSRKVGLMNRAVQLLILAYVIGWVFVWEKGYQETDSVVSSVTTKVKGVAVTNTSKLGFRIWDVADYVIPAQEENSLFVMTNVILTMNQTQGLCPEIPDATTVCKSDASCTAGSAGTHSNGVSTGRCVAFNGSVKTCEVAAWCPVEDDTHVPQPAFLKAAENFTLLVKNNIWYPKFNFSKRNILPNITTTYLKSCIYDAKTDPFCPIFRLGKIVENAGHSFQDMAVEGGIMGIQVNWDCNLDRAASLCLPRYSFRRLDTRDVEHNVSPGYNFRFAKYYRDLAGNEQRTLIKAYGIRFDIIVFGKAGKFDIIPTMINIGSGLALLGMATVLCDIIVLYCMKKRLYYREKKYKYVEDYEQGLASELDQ
MEASUREMENT_NOTES: Measurement of Ca2+ influx in transfected 1321N1 astrocytoma cells (P2X4 inhibitory potency)
CONDITION_SUMMARY: agonist-mediated Ca2+ influx, FLUO-4, 1321N1 astrocytoma cells; antagonists added 30 min before agonist
pIC50: −log10 of the molar value.

COMPOUND	TARGET_ENTITY	pIC50
COC(=O)c1cccc2c1CCN2C(=O)CNc1cc(-c2ccc(C)cn2)ccc1OC [Example 119]	P2X4 receptor (Homo sapiens, UniProt Q99571)	7.00 to 7.15
Cc1nsc(-c2ccc(C)c(NCC(=O)N3CC(CCO)c4ccccc43)c2)n1 (centres unmarked) [Example 58]	P2X4 receptor (Homo sapiens, UniProt Q99571)	< 7.00
Cc1noc(-c2ccc(C)c(NCC(=O)N3CCc4c(OCC(C)(C)O)cccc43)c2)n1 [Example 49]	P2X4 receptor (Homo sapiens, UniProt Q99571)	7.16 to 7.40
Cc1nsc(-c2ccc(C)c(NCC(=O)N3CCc4c3cccc4C(C)(F)CO)c2)n1 (centres unmarked) [Example 63]	P2X4 receptor (Homo sapiens, UniProt Q99571)	7.72 to 10.00
CCc1nsc(-c2ccc(F)c(NCC(=O)N3CCc4c(N5CCC(O)C5)cccc43)c2)n1 (centres unmarked) [Example 71]	P2X4 receptor (Homo sapiens, UniProt Q99571)	7.72 to 10.00
CCc1nsc(-c2ccc(C)c(NCC(=O)N3CCc4c(C(=O)N5CCN(C)CC5)cccc43)c2)n1 [Example 45]	P2X4 receptor (Homo sapiens, UniProt Q99571)	7.41 to 7.70
CCc1noc(-c2cc(NCC(=O)c3c[nH]c4cc(OC)ccc34)c(OC)cc2Br)n1 [Example 109]	P2X4 receptor (Homo sapiens, UniProt Q99571)	7.16 to 7.40
COc1cccc2c1CCN2C(=O)CNc1cc(-c2nc(C)ns2)ccc1F [Example 34]	P2X4 receptor (Homo sapiens, UniProt Q99571)	7.41 to 7.70
CCc1noc(-c2ccc(OC)c(NCC(=O)N3CCc4ccc(C(F)(F)F)cc43)c2)n1 [Example 7]	P2X4 receptor (Homo sapiens, UniProt Q99571)	< 7.00
CNC(=O)C1CN(C(=O)CNc2cc(-c3nc(C)ns3)ccc2C)c2ccccc21 (centres unmarked) [Example 59]	P2X4 receptor (Homo sapiens, UniProt Q99571)	< 7.00
CCc1nsc(-c2ccc(C)c(NCC(=O)N3CCc4c(NS(C)(=O)=O)cccc43)c2)n1 [Example 20]	P2X4 receptor (Homo sapiens, UniProt Q99571)	7.72 to 10.00
Cc1ccc(-c2ccc(C(C)C)cn2)cc1NCC(=O)N1CCc2c(OCCOCCO)cccc21 [Example 113]	P2X4 receptor (Homo sapiens, UniProt Q99571)	7.16 to 7.40
Cc1nsc(-c2ccc(C)c(NCC(=O)N3CCc4c(NC(=O)[C@H](O)[C@@H](O)C(=O)O)cccc43)c2)n1 [Example 82]	P2X4 receptor (Homo sapiens, UniProt Q99571)	7.00 to 7.15
COc1cc2[nH]cc(C(=O)CNc3cc(-c4nc(C)ns4)ccc3OC)c2cc1F [Example 94]	P2X4 receptor (Homo sapiens, UniProt Q99571)	7.72 to 10.00
